# Tested on: Streptococcus pyogenes
# protocol_details: Antibacterial activity against MLS-resistant Streptococcus pyogenes 01-968 expressing inducible ermB gene assessed as reduction in microbial growth by CLSI based two-fold broth dilution method
# Assay type: functional
Each entry below lists one item and its recorded MIC value.
Unit µg/mL implied. Number only.

Known results for compounds:
CC[C@H]1OC(=O)[C@@](C)(F)C(=O)[C@H](C)[C@@H](O[C@@H]2O[C@H](C)C[C@H](N(C)C)[C@H]2O)[C@](C)(OC/C=C/c2cncc(C(N)=O)c2)C[C@@H](C)/C(=N\OC)[C@H](C)[C@H]2OC(=O)O[C@@]21C	0.031
CC[C@H]1OC(=O)[C@@](C)(F)C(=O)[C@H](C)[C@@H](O[C@@H]2O[C@H](C)C[C@H](N(C)C)[C@H]2O)[C@](C)(OC)C[C@@H](C)/C(=N\OCC#Cc2cncc(NC(C)=O)c2)[C@H](C)[C@H]2OC(=O)O[C@@]21C	0.125
CC[C@H]1OC(=O)[C@@](C)(F)C(=O)[C@H](C)[C@@H](O[C@@H]2O[C@H](C)C[C@H](N(C)C)[C@H]2O)[C@](C)(OC)C[C@@H](C)/C(=N\OCC#Cc2cncc(N)c2)[C@H](C)[C@H]2OC(=O)O[C@@]21C	0.062

Give MIC (Streptococcus pyogenes) of the following compound: CC[C@H]1OC(=O)[C@@](C)(F)C(=O)[C@H](C)[C@@H](O[C@@H]2O[C@H](C)C[C@H](N(C)C)[C@H]2O)[C@](C)(OC)C[C@@H](C)/C(=N\OC/C=C/c2ccc3[nH]cc(C(=O)O)c(=O)c3c2)[C@H](C)[C@H]2OC(=O)O[C@@]21C 0.016

---

# System: Staphylococcus aureus
# protocol_details: Bactericidal activity against MLS/methicillin-resistant Staphylococcus aureus PU 32 expressing inducible ermA gene pretreated followed by subculture in absence of compound measured after 24 hrs
# Type: functional
reported_metric: MBC

CC[C@H]1OC(=O)[C@@](C)(F)C(=O)[C@H](C)[C@@H](O[C@@H]2O[C@H](C)C[C@H](N(C)C)[C@H]2O)[C@](C)(OC)C[C@@H](C)/C(=N\OCC#Cc2cncc(NC(C)=O)c2)[C@H](C)[C@H]2OC(=O)O[C@@]21C	> 8 µg/mL

Let us move to another entry and its MBC.
Recorded MBC for CC[C@H]1OC(=O)[C@H](C)[C@@H](O[C@H]2C[C@@](C)(OC)[C@@H](O)[C@H](C)O2)[C@H](C)[C@@H](O[C@@H]2O[C@H](C)C[C@H](N(C)C)[C@H]2O)[C@](C)(O)C[C@@H](C)CN(C)[C@H](C)[C@@H](O)[C@]1(C)O , please? 32 µg/mL

---

# protocol_details: AUC (0 to t) in Sprague-Dawley rat at 20 mg/kg, po after 0.25 to 24 hrs by LC-MS/MS analysis
# Type: ADME, organism-based
# Parameters: time upper 24 hr, dose 20 mg/kg, time lower 0.25 hr, route oral
# experimental_setup: in vivo
reported_metric: AUC(0-t) (ng·h/mL)
The reply should contain only the number, in ng·h/mL.

Example entries and their recorded answers appear below.
CC[C@H]1OC(=O)[C@H](C)C(=O)[C@H](C)[C@@H](O[C@@H]2O[C@H](C)C[C@H](N(C)C)[C@H]2O)[C@](C)(OC)C[C@@H](C)C(=O)[C@H](C)[C@H]2N(CCCCn3cnc(-c4cccnc4)c3)C(=O)O[C@]12C	897
CC[C@H]1OC(=O)[C@@](C)(F)C(=O)[C@H](C)[C@@H](O[C@@H]2O[C@H](C)C[C@H](N(C)C)[C@H]2O)[C@](C)(OC)C[C@@H](C)/C(=N\OCC#Cc2ccc3c(c2)c(=O)c(C(N)=O)cn3CC)[C@H](C)[C@H]2OC(=O)O[C@@]21C	228
CC[C@H]1OC(=O)[C@@](C)(F)C(=O)[C@H](C)[C@@H](O[C@@H]2O[C@H](C)C[C@H](N(C)C)[C@H]2O)[C@](C)(OC)C[C@@H](C)/C(=N\OC/C=C/c2ccc3c(c2)c(=O)c(C(N)=O)cn3CC)[C@H](C)[C@H]2OC(=O)O[C@@]21C	1460

Now take the following molecule into account.
Using the record for CC[C@H]1OC(=O)[C@@](C)(F)C(=O)[C@H](C)[C@@H](O[C@@H]2O[C@H](C)C[C@H](N(C)C)[C@H]2O)[C@](C)(OC/C=C/c2ccc3c(c2)c(=O)c(C(N)=O)cn3C2CC2)C[C@@H](C)/C(=N\OC)[C@H](C)[C@H]2OC(=O)O[C@@]21C , report its AUC(0-t). 4600
